The values you see were collected from paper PMC10786891.

STUDY_TARGET: T1, EsCas13d, nuclease-dead (Eubacterium siraeum, UniProt B0MS50, R295A;H300A;R849A;H854A)
T1 sequence: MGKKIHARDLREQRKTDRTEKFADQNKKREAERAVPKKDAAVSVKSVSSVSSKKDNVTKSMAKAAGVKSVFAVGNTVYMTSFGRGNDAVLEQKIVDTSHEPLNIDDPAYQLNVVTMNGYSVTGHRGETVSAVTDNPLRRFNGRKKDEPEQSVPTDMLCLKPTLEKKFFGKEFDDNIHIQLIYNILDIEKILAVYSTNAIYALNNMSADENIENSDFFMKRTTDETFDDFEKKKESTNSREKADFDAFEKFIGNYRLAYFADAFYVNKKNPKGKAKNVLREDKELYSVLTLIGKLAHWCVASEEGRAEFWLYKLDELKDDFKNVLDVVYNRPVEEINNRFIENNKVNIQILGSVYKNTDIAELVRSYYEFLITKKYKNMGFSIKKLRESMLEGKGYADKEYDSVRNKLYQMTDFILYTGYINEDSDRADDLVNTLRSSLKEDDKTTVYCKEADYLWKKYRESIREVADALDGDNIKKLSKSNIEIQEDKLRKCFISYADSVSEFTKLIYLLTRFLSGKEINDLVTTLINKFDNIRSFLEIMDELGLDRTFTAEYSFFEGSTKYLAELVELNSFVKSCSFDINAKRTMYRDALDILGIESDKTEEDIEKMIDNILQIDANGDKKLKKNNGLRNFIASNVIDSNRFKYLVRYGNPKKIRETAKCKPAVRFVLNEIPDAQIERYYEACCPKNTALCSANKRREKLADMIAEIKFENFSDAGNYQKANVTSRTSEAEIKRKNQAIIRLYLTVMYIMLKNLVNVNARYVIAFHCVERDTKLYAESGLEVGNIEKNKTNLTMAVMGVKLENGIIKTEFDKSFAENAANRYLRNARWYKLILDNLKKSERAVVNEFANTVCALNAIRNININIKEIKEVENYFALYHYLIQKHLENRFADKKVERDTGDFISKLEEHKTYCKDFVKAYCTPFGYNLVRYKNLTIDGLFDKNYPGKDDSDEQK
TEST: crRNA (strand 1, pre-loaded); Mg2+; 40 mM Tris-HCl pH 7.5, 150 mM NaCl, 6 mM MgCl2, 1 mM DTT, 0.1% Tween-20, 0.2 mg/ml BSA; 25 C; 10 min per concentration, then washed
CONDITION_LABEL: tags: His6-TwinStrep-SUMO cleaved; N-terminal SNAP kept (SNAP-Surface 488); label: 3' end held by stalled T7 RNA polymerase
Classify: fulfilled when Kd is strictly less than 10 nM; not fulfilled when Kd is not.

Example cases with answers are listed next.
[
  {
    "BINDER": "target 1 A1U,U10A (mixed) RNA 1: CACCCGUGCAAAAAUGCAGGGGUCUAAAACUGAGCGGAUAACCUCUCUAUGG RNA 2: GGGAAUGGAUCCACAUCUACGAAUUCGUACCAUAGAGAGGUAAUCCGCUCUCCGAGAUCGGAAGAGCACACGU",
    "LABEL_VALUE": "fulfilled"
  },
  {
    "BINDER": "target 1 MT 5'PFS AAC 3'PFS ACA (mixed) RNA 1: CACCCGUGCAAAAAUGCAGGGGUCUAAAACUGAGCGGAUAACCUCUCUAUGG RNA 2: GGGAAUGGAUCCACAUCUACGAAUUCAACCCAUAGAGAGGUUAUCCGCUCAACAAGAUCGGAAGAGCACACGU",
    "LABEL_VALUE": "not fulfilled"
  },
  {
    "BINDER": "target 1 insU 3' of 6,insG 3' of 6 (mixed) RNA 1: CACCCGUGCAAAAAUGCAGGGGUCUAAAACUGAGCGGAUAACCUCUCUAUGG RNA 2: GGGAAUGGAUCCACAUCUACGAAUUCGUACCAUAGAGAGGUUAUCCUGGCUCACCGAGAUCGGAAGAGCACACGU",
    "LABEL_VALUE": "not fulfilled"
  },
  {
    "BINDER": "target 1 MT 5'PFS UUA 3'PFS AUC (mixed) RNA 1: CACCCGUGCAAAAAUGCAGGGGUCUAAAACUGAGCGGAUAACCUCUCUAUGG RNA 2: GGGAAUGGAUCCACAUCUACGAAUUCUUACCAUAGAGAGGUUAUCCGCUCAAUCAGAUCGGAAGAGCACACGU",
    "LABEL_VALUE": "not fulfilled"
  }
]

Now consider a different binder.
INPUT: Please let me know if target 1 C2U,G12U (mixed) RNA 1: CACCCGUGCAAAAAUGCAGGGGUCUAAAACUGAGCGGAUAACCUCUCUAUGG RNA 2: GGGAAUGGAUCCACAUCUACGAAUUCGUACCAUAGAGAGUUUAUCCGCUUACCGAGAUCGGAAGAGCACACGU shows Kd below 10 nM.
OUTPUT: not fulfilled
